Target Entity: human vasopressin V1a receptor subtype (Homo sapiens)
Construct: host or cells: CHO cells (pZeoSV vector for the Thibonnier line)
Measurement Description: Vasopressin binding in Chinese Hamster Ovary cell membranes expressing human vasopressin V1a subtype receptors
Setup Conditions: 100 nM, CHO cell membranes, [3H]Manning ligand, values without parentheses
Experimental Readout: inhibition at 0.1 µM (%)

INSERT INTO measurements (smiles, test_value) VALUES
  ('COc1cc(C(=O)N2Cc3ccc(C(=O)N4CCN(C(C)C)CC4)n3Cc3ccccc32)ccc1-c1ccccc1C', 39),
  ('COc1ccccc1-c1ccc(C(=O)N2Cc3ccc(C(=O)N4CCN(CCN(C)C)CC4)n3Cc3ccccc32)cc1OC', 16),
  ('Cc1ccccc1-c1ccc(C(=O)N2Cc3ccc(C(=O)N(C)CCCN(C)C)n3Cc3ccccc32)cc1', 85),
  ('COc1cc(C(=O)N2Cc3ccc(C(=O)NCCN4CCCCC4)n3Cc3ccccc32)ccc1-c1ccccc1C', 39),
  ('Cc1cc(C(=O)N2Cc3cccn3Cc3ccccc32)ccc1-c1ccncc1', 30),
  ('Cc1ccccc1-c1ccc(C(=O)N2Cc3ccc(C(=O)N4CCN(CCCN(C)C)CC4)n3Cc3ccccc32)cc1C', 62),
  ('COc1ccccc1-c1ccc(C(=O)N2Cc3ccc(C(=O)N[C@H]4CN5CCC4CC5)n3Cc3ccccc32)cc1OC', 14);

* * *

// endpoint pIC50 / system human vasopressin V2 receptor subtype (Homo sapiens, UniProt P30518)
pIC50: −log10 of the molar value.
Experimental Readout: pIC50

INSERT INTO assay_data (compound, test_value) VALUES
  ('COc1cc(-c2ccccc2C)c(Cl)cc1C(=O)N1Cc2ccc(C(=O)N3CCC(N4CCCC4)CC3)n2Cc2ccccc21 [Example 136]', 6.22),
  ('COc1ccccc1-c1ccc(C(=O)N2Cc3ccc(C(=O)N4CCC(N5CCCCC5)CC4)n3Cc3ccccc32)cc1 [Example 111]', 6.11),
  ('COc1cc(-c2ccccc2C)c(Cl)cc1C(=O)N1Cc2ccc(C(=O)N3CCC(N4CCCCC4)CC3)n2Cc2ccccc21 [Example 110]', 6.10),
  ('COc1cc(C(=O)N2Cc3ccc(C(=O)N(C)CCN(C)C)n3Cc3ccccc32)ccc1-c1ccccc1C(F)(F)F [Example 22]', 5.85),
  ('COc1ccccc1-c1ccc(C(=O)N2Cc3ccc(C(=O)N4CCN(CCCN(C)C)CC4)n3Cc3ccccc32)cc1C [Example 245]', 6.37),
  ('C=CCN1CCN(C(=O)c2ccc3n2Cc2ccccc2N(C(=O)c2ccc(-c4ccccc4OC)cc2)C3)CC1 [Example 221]', 6.08),
  ('COc1ccccc1-c1ccc(C(=O)N2Cc3ccc(C(=O)N4CCN(CCCN(C)C)CC4)n3Cc3ccccc32)cc1 [Example 246]', 6.29),
  ('COc1cc(-c2ccccc2C)c(Cl)cc1C(=O)N1Cc2ccc(C(=O)N(C)CCN(C)C)n2Cc2ccccc21 [Example 86]', 5.77),
  ('COc1ccccc1-c1ccc(C(=O)N2Cc3ccc(C(=O)N4CCCN(C)CC4)n3Cc3ccccc32)cc1 [Example 61]', 6.13);

* * *

Target Entity: human oxytocin receptor (Homo sapiens)
Construct: host or cells: CHO cells (pcDNA3.1 vector)
Sequence (P30559 whole entry): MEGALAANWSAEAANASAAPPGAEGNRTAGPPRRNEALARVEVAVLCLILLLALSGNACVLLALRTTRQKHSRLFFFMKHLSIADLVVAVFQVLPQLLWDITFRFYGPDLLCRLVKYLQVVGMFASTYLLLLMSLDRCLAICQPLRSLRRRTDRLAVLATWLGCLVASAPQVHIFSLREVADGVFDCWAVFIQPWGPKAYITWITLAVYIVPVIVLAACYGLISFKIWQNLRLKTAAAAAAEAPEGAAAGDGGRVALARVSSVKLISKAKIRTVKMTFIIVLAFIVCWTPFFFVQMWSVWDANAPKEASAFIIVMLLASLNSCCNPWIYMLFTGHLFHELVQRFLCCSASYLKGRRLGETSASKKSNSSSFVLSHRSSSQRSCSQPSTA
Measurement Description: Oxytocin binding in Chinese Hamster Ovary cell membranes expressing human oxytocin receptors
Setup Conditions: 100 nM, CHO cell membranes, [3H]oxytocin, values without parentheses, read-out: OT % inhibition @ 100% nM
Tag: 1 if measured inhibition at 0.1 µM is not below 90%, 0 if it is.

INSERT INTO results (compound, target_entity, category_label) VALUES
  ('COc1ccccc1-c1ccc(C(=O)N2Cc3ccc(C(=O)N(C)C4CCN(C)C4)n3Cc3ccccc32)cc1 (stereo not shown)', 'human oxytocin receptor (Homo sapiens)', 1),
  ('COc1ccccc1-c1ccc(C(=O)N2Cc3ccc(C(=O)N4CCN(CCCN(C)C)CC4)n3Cc3ccccc32)cc1OC', 'human oxytocin receptor (Homo sapiens)', 0),
  ('Cc1ccccc1-c1ccc(C(=O)N2Cc3ccc(C(=O)N4CCN(CCN5CCOCC5)CC4)n3Cc3ccccc32)cc1', 'human oxytocin receptor (Homo sapiens)', 0),
  ('COc1ccccc1-c1ccc(C(=O)N2Cc3ccc(C(=O)NCCCn4ccnc4)n3Cc3ccccc32)cc1OC', 'human oxytocin receptor (Homo sapiens)', 0),
  ('Cc1ccccc1-c1ccc(C(=O)N2Cc3ccc(C(=O)N4CCC(N5CCCCC5)CC4)n3Cc3ccccc32)cc1C', 'human oxytocin receptor (Homo sapiens)', 1);

* * *

List of IC50 tested on human vasopressin V1a receptor subtype (Homo sapiens).
Experimental Readout: IC50 (µM)

INSERT INTO measurements (smiles, target_entity, readout_unit, test_value) VALUES
  ('COc1cc(-c2ccccc2C)ccc1C(=O)N1Cc2ccc(C(=O)N(C)CCCN(C)C)n2Cc2ccccc21', 'human vasopressin V1a receptor subtype (Homo sapiens)', 'µM', 0.0704),
  ('C=CCN1CCN(C(=O)c2ccc3n2Cc2ccccc2N(C(=O)c2cc(Cl)c(-c4ccccc4C)cc2OC)C3)CC1', 'human vasopressin V1a receptor subtype (Homo sapiens)', 'µM', 1.81),
  ('Cc1cc(C(=O)N2Cc3ccc(C(=O)N4CCCN(C)CC4)n3Cc3ccccc32)ccc1-c1ccccc1C(F)(F)F', 'human vasopressin V1a receptor subtype (Homo sapiens)', 'µM', 1.89),
  ('COc1cc(C(=O)N2Cc3ccc(C(=O)N(C)CCN(C)C)n3Cc3ccccc32)ccc1-c1ccccc1C(F)(F)F', 'human vasopressin V1a receptor subtype (Homo sapiens)', 'µM', 0.225);

* * *

Target Entity: human vasopressin V2 receptor subtype (Homo sapiens, UniProt P30518)
Construct: host or cells: CHO cells (pZeoSV vector)
Sequence (P30518 whole entry): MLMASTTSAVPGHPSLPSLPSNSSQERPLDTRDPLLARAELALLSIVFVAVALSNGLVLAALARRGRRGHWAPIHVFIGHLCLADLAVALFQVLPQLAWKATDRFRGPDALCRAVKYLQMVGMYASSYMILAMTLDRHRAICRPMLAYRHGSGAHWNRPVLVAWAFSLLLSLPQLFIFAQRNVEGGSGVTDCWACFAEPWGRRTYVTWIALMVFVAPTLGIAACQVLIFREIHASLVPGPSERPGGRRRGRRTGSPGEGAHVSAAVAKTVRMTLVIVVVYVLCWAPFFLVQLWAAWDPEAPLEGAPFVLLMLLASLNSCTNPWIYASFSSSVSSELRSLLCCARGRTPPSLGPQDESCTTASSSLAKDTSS
Measurement Description: Vasopressin binding in Chinese Hamster Ovary cell membranes expressing human vasopressin V2 subtype receptors
Setup Conditions: 100 nM, CHO cell membranes, [3H]arginine vasopressin, values without parentheses
Reported inhibition at 0.1 µM values for the following molecules.
Experimental Readout: inhibition at 0.1 µM (%)

INSERT INTO assay_data (smiles, experimental_readout, test_value) VALUES
  ('COc1cc(C(=O)N2Cc3ccc(C(=O)N(C)C4CCN(C)CC4)n3Cc3ccccc32)ccc1-c1cccc2ccccc12', 'inhibition at 0.1 µM', 35),
  ('COc1ccccc1-c1ccc(C(=O)N2Cc3ccc(C(=O)N[C@H]4CN5CCC4CC5)n3Cc3ccccc32)cc1OC', 'inhibition at 0.1 µM', 22),
  ('COc1cc(C(=O)N2Cc3ccc(C(=O)N(C)CCN(C)C)n3Cc3ccccc32)ccc1-c1ccccc1C', 'inhibition at 0.1 µM', 20),
  ('COc1cc(C(=O)N2Cc3ccc(C(=O)N4CCN(CCN5CCOCC5)CC4)n3Cc3ccccc32)ccc1-c1cccc2ccccc12', 'inhibition at 0.1 µM', 33);

* * *

Target Entity: human vasopressin V1a receptor subtype (Homo sapiens, UniProt P37288)
Construct: host or cells: CHO cells (pZeoSV vector for the Thibonnier line)
Sequence (P37288 whole entry): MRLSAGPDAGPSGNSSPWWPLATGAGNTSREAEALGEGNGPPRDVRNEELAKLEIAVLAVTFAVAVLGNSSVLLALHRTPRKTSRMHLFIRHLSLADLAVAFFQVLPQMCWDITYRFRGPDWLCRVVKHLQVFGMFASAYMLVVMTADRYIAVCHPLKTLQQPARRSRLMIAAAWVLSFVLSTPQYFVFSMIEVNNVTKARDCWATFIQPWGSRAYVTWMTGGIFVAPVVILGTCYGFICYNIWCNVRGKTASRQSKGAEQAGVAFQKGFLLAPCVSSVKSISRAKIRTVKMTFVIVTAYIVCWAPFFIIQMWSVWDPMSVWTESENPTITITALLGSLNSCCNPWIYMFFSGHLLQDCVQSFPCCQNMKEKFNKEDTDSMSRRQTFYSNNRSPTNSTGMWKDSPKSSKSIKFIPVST
Measurement Description: Vasopressin binding in Chinese Hamster Ovary cell membranes expressing human vasopressin V1a subtype receptors
Setup Conditions: 100 nM, CHO cell membranes, [3H]Manning ligand, values without parentheses
Experimental Readout: inhibition at 0.1 µM (%)

INSERT INTO measurements (compound, test_value) VALUES
  ('COc1cc(C(=O)N2Cc3ccc(C(=O)N(C)CCCN(C)C)n3Cc3ccccc32)ccc1-c1ccccc1C', 74),
  ('C=CCN1CCN(C(=O)c2ccc3n2Cc2ccccc2N(C(=O)c2ccc(-c4cccc5ccccc45)c(OC)c2)C3)CC1', 7),
  ('COc1cc(C(=O)N2Cc3ccc(C(=O)N4CCCN(C)CC4)n3Cc3ccccc32)ccc1-c1cccc2ccccc12', 9),
  ('Cc1cc(C(=O)N2Cc3cccn3Cc3ncccc32)ccc1-c1ccccc1C(F)(F)F [Example 323F]', 2),
  ('Cc1ccccc1-c1ccc(C(=O)N2Cc3ccc(C(=O)N4CCC(N5CCCC5)CC4)n3Cc3ccccc32)cc1', -3),
  ('C=CCN1CCN(C(=O)c2ccc3n2Cc2ccccc2N(C(=O)c2cc(Cl)c(-c4cccc(OC)c4)cc2OC)C3)CC1', 3),
  ('COc1ccccc1-c1ccc(C(=O)N2Cc3ccc(C(=O)N4CCC(N5CCCC5)CC4)n3Cc3ccccc32)cc1C', 4),
  ('COc1cc(C(=O)N2Cc3ccc(C(=O)N(C)C4CCN(C)C4)n3Cc3ccccc32)ccc1-c1ccccc1C (centres unmarked)', 83),
  ('COc1cc(C(=O)N2Cc3ccc(C(=O)NCCCn4ccnc4)n3Cc3ccccc32)ccc1-c1cccc2ccccc12', 8),
  ('Cc1cc(C(=O)N2Cc3ccc(C(=O)N4CCC(N5CCCC5)CC4)n3Cc3ccccc32)ccc1-c1ccccc1C(F)(F)F', -9),
  ('COc1cc(C(=O)N2Cc3ccc(C(=O)N4CCN(C(C)C)CC4)n3Cc3ccccc32)ccc1-c1cccc2ccccc12', 6),
  ('CN1CCN(C(=O)c2ccc3n2Cc2ccccc2N(C(=O)c2ccc(-c4cccc5ccccc45)cc2Cl)C3)CC1', 5),
  ('COc1cccc(-c2cc(OC)c(C(=O)N3Cc4ccc(C(=O)N[C@@H](CCCCNC(=O)OC(C)(C)C)C(N)=O)n4Cc4ccccc43)cc2Cl)c1', -15),
  ('COc1cc(C(=O)N2Cc3ccc(C(=O)N4CCC(N5CCCCC5)CC4)n3Cc3ccccc32)ccc1-n1c(C)ccc1C', -5);
